Target or system: Enoyl-[acyl-carrier-protein] reductase [NADH] (Mycobacterium tuberculosis)
Measured property: IC50 (nM)
Numbers only, in nM.

Reference set (5 entries):
CCc1cc(C(=O)N[C@@H]2C[C@@H](C(=O)NCc3ccc(C(F)(F)F)cc3)N(C(=O)c3coc4ccccc34)C2)n(C)n1 = 42
CCc1cc(C(=O)N[C@@H]2C[C@@H](C(=O)NCCOC)N(C(=O)c3coc4ccccc34)C2)n(C)n1 = 14
CCc1cc(C(=O)N[C@@H]2C[C@@H](C(N)=O)N(C(=O)c3coc4ccccc34)C2)n(C)n1 = 12
CCc1cc(C(=O)N[C@@H]2C[C@@H](C(=O)Nc3ccn(Cc4ccc(F)cc4)n3)N(C(=O)c3coc4ccccc34)C2)n(C)n1 = 5
CCNC[C@@H]1C[C@@H](NC(=O)c2cc(CC)nn2C)CN1C(=O)c1coc2ccccc12 = 440

Look at each compound and report its IC50.
1. CCNC(=O)[C@@H]1C[C@@H](NC(=O)c2cc(CC)nn2C)CN1C(=O)c1ccc2occc2c1
2. CCc1cc(C(=O)N[C@@H]2C[C@@H](C(=O)NCC3OB(O)c4ccccc43)N(C(=O)c3coc4ccccc34)C2)n(C)n1 (stereo partly specified)
3. CCc1cc(C(=O)N[C@@H]2C[C@@H](C(=O)NCc3ccn(CC)n3)N(C(=O)c3coc4ccccc34)C2)n(C)n1

[74, 35, 32]

====

Method notes: Cmax in C57BL/6J mouse at 1000 mg/kg, po measured at 24 hrs
Assay type: ADME, organism-based
Design: dose 1000 mg/kg, route oral
Condition notes: in vivo
Measured property: Cmax (ng/mL)
Give bare numbers, in ng/mL.

Dear colleague, I am looking for the recorded Cmax of the following compound: CCc1cc(C(=O)N[C@@H]2C[C@@H](C(N)=O)N(C(=O)c3coc4ccccc34)C2)n(CC)n1
23000

====

Target or system: Voltage-gated inwardly rectifying potassium channel KCNH2 (Homo sapiens)
Sequence (Q12809 whole entry): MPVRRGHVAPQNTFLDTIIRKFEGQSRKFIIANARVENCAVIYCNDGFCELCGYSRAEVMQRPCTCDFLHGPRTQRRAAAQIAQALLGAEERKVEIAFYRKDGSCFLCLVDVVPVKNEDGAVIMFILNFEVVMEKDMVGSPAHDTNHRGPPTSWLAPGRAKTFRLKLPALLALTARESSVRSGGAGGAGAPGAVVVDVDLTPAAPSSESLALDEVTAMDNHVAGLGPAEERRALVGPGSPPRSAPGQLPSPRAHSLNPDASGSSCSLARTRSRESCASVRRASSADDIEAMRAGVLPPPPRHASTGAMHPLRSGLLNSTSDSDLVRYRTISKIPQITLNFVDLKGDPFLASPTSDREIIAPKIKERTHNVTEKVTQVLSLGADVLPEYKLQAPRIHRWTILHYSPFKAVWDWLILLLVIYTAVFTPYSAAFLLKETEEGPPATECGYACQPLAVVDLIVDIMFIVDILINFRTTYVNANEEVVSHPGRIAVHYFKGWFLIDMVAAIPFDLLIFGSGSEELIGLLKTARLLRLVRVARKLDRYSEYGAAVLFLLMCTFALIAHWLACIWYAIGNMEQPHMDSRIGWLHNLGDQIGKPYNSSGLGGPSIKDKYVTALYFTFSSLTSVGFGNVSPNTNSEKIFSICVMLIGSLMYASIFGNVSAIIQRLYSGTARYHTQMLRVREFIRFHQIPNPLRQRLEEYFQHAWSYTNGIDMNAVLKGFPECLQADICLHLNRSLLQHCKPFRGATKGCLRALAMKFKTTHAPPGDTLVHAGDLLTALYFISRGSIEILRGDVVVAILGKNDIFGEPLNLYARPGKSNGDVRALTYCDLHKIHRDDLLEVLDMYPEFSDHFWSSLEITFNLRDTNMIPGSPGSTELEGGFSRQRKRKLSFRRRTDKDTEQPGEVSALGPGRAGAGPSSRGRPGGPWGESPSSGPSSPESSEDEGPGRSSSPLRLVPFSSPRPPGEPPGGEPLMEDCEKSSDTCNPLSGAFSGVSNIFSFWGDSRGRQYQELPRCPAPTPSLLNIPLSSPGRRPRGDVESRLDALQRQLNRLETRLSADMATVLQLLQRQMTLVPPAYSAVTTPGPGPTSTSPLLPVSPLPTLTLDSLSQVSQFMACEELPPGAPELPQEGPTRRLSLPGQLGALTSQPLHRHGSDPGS
Measured property: IC50

Entry CCNC(=O)[C@@H]1C[C@@H](NC(=O)c2cc(CC)nn2C)CN1C(=O)c1coc2ccccc12 has what IC50?
> 50 µM

====

Method notes: Half life in C57BL/6J mouse at 4 mg/kg, iv
Format: ADME, organism-based
Parameters: dose 4 mg/kg, route intravenous
Condition notes: in vivo
Measured property: half-life (min)
Answers are plain numbers, in min.

For CCc1cc(C(=O)N[C@@H]2C[C@@H](C(N)=O)N(C(=O)c3coc4ccccc34)C2)n(CC)n1 , what is its reported half-life?
28.2

====

Method notes: Half life in mouse liver microsomes at 0.5 uM
Type: ADME, Microsome
Measured property: half-life at 0.5 µM (min)
Numbers only, in min.

# query: half-life at 0.5 µM of entry CCNC(=O)[C@@H]1C[C@@H](NC(=O)c2cc(CC)nn2C)CN1C(=O)c1coc2ccccc12
28

====

Lab note: IC50 readings collected with Cytochrome P450 3A4 (Homo sapiens, UniProt P08684) for the following compounds.
Sequence (P08684 whole entry): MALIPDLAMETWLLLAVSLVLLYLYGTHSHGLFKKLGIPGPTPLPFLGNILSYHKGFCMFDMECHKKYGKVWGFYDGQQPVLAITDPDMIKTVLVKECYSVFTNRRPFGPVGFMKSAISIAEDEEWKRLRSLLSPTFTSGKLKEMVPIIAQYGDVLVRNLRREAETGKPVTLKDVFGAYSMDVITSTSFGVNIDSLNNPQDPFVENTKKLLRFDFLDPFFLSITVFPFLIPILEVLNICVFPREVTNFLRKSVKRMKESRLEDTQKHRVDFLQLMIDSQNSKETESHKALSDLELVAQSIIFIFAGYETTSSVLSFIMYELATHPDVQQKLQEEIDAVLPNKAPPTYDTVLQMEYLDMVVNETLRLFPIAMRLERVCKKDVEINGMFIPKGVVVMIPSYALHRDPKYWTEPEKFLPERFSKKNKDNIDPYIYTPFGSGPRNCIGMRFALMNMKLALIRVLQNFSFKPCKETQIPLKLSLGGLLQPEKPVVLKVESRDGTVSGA

CCc1cc(C(=O)N[C@@H]2C[C@@H](C(N)=O)N(C(=O)c3coc4ccccc34)C2)n(CC)n1 = > 50 µM

For the next question, use this compound.
Could you tell me which IC50 is on file for CCNC(=O)[C@@H]1C[C@@H](NC(=O)c2cc(CC)nn2C)CN1C(=O)c1coc2ccccc12 ?
> 50 µM

====

Method notes: Oral bioavailability in C57BL/6J mouse at 50 mg/kg
Type: ADME, organism-based
Condition notes: in vivo
Measured property: bioavailability

Query: bioavailability; subject: CCc1cc(C(=O)N[C@@H]2C[C@@H](C(N)=O)N(C(=O)c3coc4ccccc34)C2)n(CC)n1
35.6%

====

// Cytochrome P450 2D6 (Homo sapiens, UniProt P10635) IC50 records

CCNC(=O)[C@@H]1C[C@@H](NC(=O)c2cc(CC)nn2C)CN1C(=O)c1coc2ccccc12 = > 50 µM

// below: IC50 requested for another compound
Which measured IC50 value corresponds to CCc1cc(C(=O)N[C@@H]2C[C@@H](C(N)=O)N(C(=O)c3coc4ccccc34)C2)n(CC)n1 ?
> 50 µM

====

Method notes: Total AUC in C57BL/6J mouse at 1000 mg/kg, po measured at 24 hrs
Assay type: ADME, organism-based
Set-up: time AUCmax, dose 1000 mg/kg, route oral
Condition notes: in vivo
Measured property: AUC at 24 h

Given the entry CCc1cc(C(=O)N[C@@H]2C[C@@H](C(N)=O)N(C(=O)c3coc4ccccc34)C2)n(CC)n1 , report its measured AUC at 24 h.
73700 ng·h/mL

====

Quick record of pIC50 values for Cytochrome P450 2C19 (Homo sapiens, UniProt P33261).
pIC50: −log10 of the molar value.

CCc1cc(C(=O)N[C@@H]2C[C@@H](C(N)=O)N(C(=O)c3coc4ccccc34)C2)n(CC)n1 = < 4.30

Turning now to a further record.
// lookup pIC50 for CCNC(=O)[C@@H]1C[C@@H](NC(=O)c2cc(CC)nn2C)CN1C(=O)c1coc2ccccc12
< 4.30

====

Kindly state half-life at 0.5 µM for each of the entries shown.
Method notes: Half life in human liver microsomes at 0.5 uM
Format: ADME

CCNC(=O)[C@@H]1C[C@@H](NC(=O)c2cc(CC)nn2C)CN1C(=O)c1coc2ccccc12 = > 30 min

The record that follows has no half-life at 0.5 µM shown yet.
Reported half-life at 0.5 µM for CCc1cc(C(=O)N[C@@H]2C[C@@H](C(N)=O)N(C(=O)c3coc4ccccc34)C2)n(CC)n1 : what is it?
> 30 min

====

Method notes: Half life in mouse hepatocytes at 10 uM
Type: ADME, cell-based, Hepatocyte
Measured property: half-life at 10 µM (min)
One number for each entry, in min.

For CCNC(=O)[C@@H]1C[C@@H](NC(=O)c2cc(CC)nn2C)CN1C(=O)c1coc2ccccc12 , what is its reported half-life at 10 µM?
27

====

Method notes: Clearance in C57BL/6J mouse at 4 mg/kg, iv
Type: ADME, organism-based
Design: dose 4 mg/kg, route intravenous
Condition notes: in vivo
Measured property: clearance (mL/min/kg)
Give bare numbers, in mL/min/kg.

Bench note: what clearance did CCc1cc(C(=O)N[C@@H]2C[C@@H](C(N)=O)N(C(=O)c3coc4ccccc34)C2)n(CC)n1 show?
85.5

====

Target or system: Enoyl-[acyl-carrier-protein] reductase [NADH] (Mycobacterium tuberculosis)
Sequence (P9WGR1 whole entry): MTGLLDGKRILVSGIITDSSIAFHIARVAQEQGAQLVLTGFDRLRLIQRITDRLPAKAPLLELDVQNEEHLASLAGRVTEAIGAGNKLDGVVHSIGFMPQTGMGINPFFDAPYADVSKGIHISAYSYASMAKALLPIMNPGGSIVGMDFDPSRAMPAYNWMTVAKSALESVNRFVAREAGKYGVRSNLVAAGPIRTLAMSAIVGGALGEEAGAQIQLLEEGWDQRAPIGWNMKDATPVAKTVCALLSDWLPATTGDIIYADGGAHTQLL
What pIC50 was measured for each of the following?
Give bare numbers, as −log10 of the molar value.

Before answering, review these 6 worked examples.
CCc1cc(C(=O)N[C@@H]2CCN(C(=O)c3coc4ccccc34)C2)n(C)n1 = 6.92
CCNC(=O)[C@@H]1C[C@@H](NC(=O)c2cc(CC)nn2C)CN1C(=O)c1coc2ccccc12 = 7.47
CCc1cc(C(=O)N[C@@H]2C[C@@H](C(=O)NCC3CCCO3)N(C(=O)c3coc4ccccc34)C2)n(C)n1 (stereo partly drawn) = 7.35
CCc1cc(C(=O)N[C@@H]2C[C@@H](C(=O)NCC(=O)OC)N(C(=O)c3coc4ccccc34)C2)n(CC)n1 = 8.52
CCc1cc(C(=O)N[C@@H]2C[C@@H](C(=O)NCCN(C)C)N(C(=O)c3coc4ccccc34)C2)n(C)n1 = 6.77
CCc1cc(C(=O)N[C@@H]2C[C@@H](C(=O)NCc3nc(C)no3)N(C(=O)c3coc4ccccc34)C2)n(CC)n1 = 8.40

Provide pIC50 for all items below, preserving their order.
1. CCc1cc(C(=O)N[C@@H]2C[C@@H](C(=O)NCc3ccc(OC(F)(F)F)cc3)N(C(=O)c3coc4ccccc34)C2)n(C)n1
2. CCc1cc(C(=O)N[C@@H]2C[C@@H](C(=O)NCCc3ccccn3)N(C(=O)c3coc4ccccc34)C2)n(C)n1

1: 8.30; 2: 7.60

====

Method notes: AUC (0 to infinity) in C57BL/6J mouse at 50 mg/kg, po
Type: ADME, organism-based
Parameters: time infinity, dose 50 mg/kg, route oral
Condition notes: plasma
Measured property: AUC(0-inf)
Give the value; after it, write the unit.

Dear colleague, I am looking for the recorded AUC(0-inf) of the following compound: CCc1cc(C(=O)N[C@@H]2C[C@@H](C(N)=O)N(C(=O)c3coc4ccccc34)C2)n(CC)n1
3590 ng·h/mL
